target: rat central A2 adenosinergic receptors (Rattus norvegicus, UniProt P30543); construct: the striatum is removed from each of them (Bruns et al., 1986); from tissue; host or cells: rat striatum, homogenate (membrane preparation); assay: Binding to adenosine A2 receptors ([3H] NECA displacement); conditions: 1E-7M; [3H] NECA 4 nM; n=3; read-out: % displacement of the labeled ligand, A2, 1E-7M
Sequence (P30543 whole entry): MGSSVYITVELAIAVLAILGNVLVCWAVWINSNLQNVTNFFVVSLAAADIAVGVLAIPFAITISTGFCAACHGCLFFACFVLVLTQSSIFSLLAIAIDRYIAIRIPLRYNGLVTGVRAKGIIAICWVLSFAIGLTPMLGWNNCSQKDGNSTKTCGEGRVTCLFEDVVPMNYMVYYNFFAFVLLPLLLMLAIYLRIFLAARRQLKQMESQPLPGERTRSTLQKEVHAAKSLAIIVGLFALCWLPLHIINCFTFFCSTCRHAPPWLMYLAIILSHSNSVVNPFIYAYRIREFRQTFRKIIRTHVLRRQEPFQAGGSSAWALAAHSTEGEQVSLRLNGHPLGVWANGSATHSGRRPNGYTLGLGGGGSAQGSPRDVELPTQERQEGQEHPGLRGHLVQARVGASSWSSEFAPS
reportedMetric: inhibition at 0.1 µM (%)

Sample records with inhibition at 0.1 µM:
O=C(NC1CC1)[C@H]1O[C@@H](n2cnc3c(NCCc4cn(Cc5ccc(Cl)cc5)c5ccccc45)ncnc32)[C@H](O)[C@@H]1O : 30
Cc1ccc(Cn2cc(CCNc3ncnc4c3ncn4[C@@H]3O[C@H](C(=O)NC4CC4)[C@@H](O)[C@H]3O)c3ccccc32)cc1 : 21
COCCn1cc(CCNc2ncnc3c2ncn3[C@@H]2O[C@H](C(=O)NC3CC3)[C@@H](O)[C@H]2O)c2ccccc21 : 19
CN(C)CCn1cc(CCNc2ncnc3c2ncn3[C@@H]2O[C@H](C(=O)NC3CC3)[C@@H](O)[C@H]2O)c2ccccc21 : 44
O=C(NC1CC1)[C@H]1O[C@@H](n2cnc3c(NCCc4cn(C5CCCC5)c5ccccc45)ncnc32)[C@H](O)[C@@H]1O : 28
Cc1ccc(C)c(Cn2cc(CCNc3ncnc4c3ncn4[C@@H]3O[C@H](C(=O)NC4CC4)[C@@H](O)[C@H]3O)c3cc(C)ccc32)c1 : 3

(A) Cc1ccc(C)c(Cn2cc(CC(C)Nc3ncnc4c3ncn4[C@@H]3O[C@H](C(=O)NC4CC4)[C@@H](O)[C@H]3O)c3ccccc32)c1 (stereo partly drawn)
(B) CC(Cc1cn(C2CCCC2)c2ccccc12)Nc1ncnc2c1ncn2[C@@H]1O[C@H](C(=O)NC2CC2)[C@@H](O)[C@H]1O (stereo partly drawn)
(C) O=C(NC1CC1)[C@H]1O[C@@H](n2cnc3c(NCCc4cn(CCN5CCCCC5)c5ccccc45)ncnc32)[C@H](O)[C@@H]1O [Example 71 (citrate)]
(D) CC(C)n1cc(CCNc2ncnc3c2ncn3[C@@H]2O[C@H](C(=O)NC3CC3)[C@@H](O)[C@H]2O)c2ccccc21
query: Rank order required: inhibition at 0.1 µM, descending. Answer format: the labels, ordered as requested.
result: C, B, D, A
(C: 44%, B: 22%, D: 14%, A: 9%)

###

target: rat central A2 adenosinergic receptors (Rattus norvegicus); construct: the striatum is removed from each of them (Bruns et al., 1986); from tissue; host or cells: rat striatum, homogenate (membrane preparation); assay: Binding to adenosine A2 receptors ([3H] NECA displacement); conditions: 1E-7M; [3H] NECA 4 nM; n=3; read-out: % displacement of the labeled ligand, A2, 1E-7M
reportedMetric: inhibition at 0.1 µM (%)

A selection of reference data follows.
Cc1ccc(Cn2cc(CCNc3ncnc4c3ncn4[C@@H]3O[C@H](C(=O)NC4CC4)[C@@H](O)[C@H]3O)c3ccccc32)cc1C [Example 67] : 13
COc1ccc2c(c1)c(CCNc1ncnc3c1ncn3[C@@H]1O[C@H](C(=O)NC3CC3)[C@@H](O)[C@H]1O)cn2Cc1cc(C)ccc1C [Example 86] : 17
Cc1ccc(C)c(Cn2cc(CCNc3ncnc4c3ncn4[C@@H]3O[C@H](C(=O)NC4CC4)[C@@H](O)[C@H]3O)c3ccccc32)c1 [Example 68] : 9

(1) O=C(NC1CC1)[C@H]1O[C@@H](n2cnc3c(NCCc4cn(CCN5CCOCC5)c5ccccc45)ncnc32)[C@H](O)[C@@H]1O [Example 69]
(2) Cc1ccc(C)c(Cn2c(C)c(CCNc3ncnc4c3ncn4[C@@H]3O[C@H](C(=O)NC4CC4)[C@@H](O)[C@H]3O)c3ccccc32)c1 [Example 87]
query: Lowest inhibition at 0.1 µM? choose 1 or 2 # respond with the chosen item's label
result: 2

Origin of values: patent US5480983A
